- study.target: glutathione-S-transferase (GST) tagged LXRbeta LBD (ligand binding domain) (Homo sapiens)
- Sequence (P55055 222-460 limits assumed): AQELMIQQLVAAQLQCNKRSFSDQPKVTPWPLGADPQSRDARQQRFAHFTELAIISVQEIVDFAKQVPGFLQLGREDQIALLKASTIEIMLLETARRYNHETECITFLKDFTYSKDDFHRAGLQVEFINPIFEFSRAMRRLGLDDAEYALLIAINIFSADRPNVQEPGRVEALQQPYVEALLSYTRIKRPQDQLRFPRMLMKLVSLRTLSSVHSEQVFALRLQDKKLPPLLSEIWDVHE
- procedure.details: LanthaScreen TR-FRET Liver X Receptor Coactivator Assay, LXR beta-LBD
- condition.description: potency (Inflection Point) of co-activator recruitment, TR-FRET; read-out: LXR beta IP
- Protocol: While running the LanthaScreen™ TR-FRET Liver X Receptor Coactivator Assay, LXR alpha-LBD or LXR beta-LBD was added to ligand test compounds followed by addition of a mixture of a fluorescein-labelled coactivator peptide and terbium-conjugated anti-GST antibody. After an incubation period at room temperature, TR-FRET (time-resolved fluorescence resonance energy transfer) was measured using a filter-based instrument capable of TR-FRET, e.g. PerkinElmer Envision.
measurement.type: EC50 (nM)

# example entries with known answers
{"molecule": "CN(C)C(=O)c1ccc(-c2ccc(N3CCN(C(=O)OC(C)(C)C)CC3)cc2)cc1Cl", "measurement.type": "EC50", "numeric.readout": 238}
{"molecule": "CN(C)C(=O)c1ccc(-c2cnc(N3CCN(S(=O)(=O)c4ccccc4F)CC3)c(C#N)c2)cc1Cl", "measurement.type": "EC50", "numeric.readout": 17}
{"molecule": "CO[C@@](C(=O)N1CCN(c2ncc(-c3ccc(C(=O)N(C)C)c(Cl)c3)cc2C#N)CC1)(c1ccccc1)C(F)(F)F", "measurement.type": "EC50", "numeric.readout": 75}
{"molecule": "C=CCN(C(=O)c1ccc(-c2cnc(N3CCN(C(=O)OC(C)(C)C)CC3)c(C#N)c2)cc1Cl)C1CCS(=O)(=O)C1 (stereo not shown)", "measurement.type": "EC50", "numeric.readout": 2210}

[A] CN(C)C(=O)c1ccc(-c2cnc(N3CCN(S(=O)(=O)C(F)F)CC3)c(C#N)c2)cc1Cl
[B] CN(C)C(=O)c1ccc(-c2cnc(N3CCN(C(=O)OCC4(C)CC4)CC3)c(C#N)c2)cc1Cl
[C] Cc1cccc(COC(=O)N2CCN(c3ncc(-c4ccc(C(=O)N(C)C)c(Cl)c4)cc3C#N)CC2)c1
INPUT: Put the items in order so that reported EC50 rises from first to last. Please write the labels in the order that was asked for.
OUTPUT: B, C, A
(B: 39 nM, C: 56 nM, A: 200 nM)
